// values below are reported selectivity ratio
# experimentalDetails: Selectivity index, ratio of IC50 for cytotoxicity against human HaCaT cells to IC50 for cytotoxicity against human PC-3 cells
# Assay type: toxicity, cell-based
# settings: HaCaT cells versus PC-3 cells, read-out: Ratio IC50

- substanceSmiles: "CCCC[P+](CCCC)(CCCC)CCCCOC(=O)[C@H](CC)[C@H]1CC[C@H](C)[C@H]([C@@H](C)[C@H](O)[C@H](C)C(=O)[C@H](CC)[C@H]2O[C@]3(C=C[C@@H](O)[C@]4(CC[C@@](C)([C@H]5CC[C@](O)(CC)[C@H](C)O5)O4)O3)[C@H](C)C[C@@H]2C)O1.[Br-]"
  selectivity ratio: 0.5

Turning now to a further molecule:
Query block: Entry under review: CC[C@@H](C(=O)[C@@H](C)[C@@H](O)[C@H](C)[C@@H]1O[C@@H]([C@@H](CC)C(=O)OCCCC[P+](c2ccc(OC)cc2)(c2ccc(OC)cc2)c2ccc(OC)cc2)CC[C@@H]1C)[C@H]1O[C@]2(C=C[C@@H](O)[C@]3(CC[C@@](C)([C@H]4CC[C@](O)(CC)[C@H](C)O4)O3)O2)[C@H](C)C[C@@H]1C.[Br-] . Reported selectivity ratio?
Result block: 0.5
